# methodSummary: in vitro
# conditionsUsed: human
Reported IC50 values are given for each entry in this list.

Study these solved cases before continuing.
- CC[C@@H](C)[C@@H](NC(=O)[C@@H](CCCNC(=N)N)NC(=O)[C@@H](CCCNC(=N)N)NC(=O)[C@@H](Cc1ccccc1)NC(=O)[C@@H](CC(C)C)NC(=O)[C@@H](CCCNC(=N)N)NC(=O)[C@H](N)CCCNC(=N)N)C(=O)N[C@H](CC(C)C)C(=O)N[C@H](CCCNC(=N)N)C(=O)N[C@H](Cc1c[nH]c2ccccc12)C(=O)N[C@H](CC(C)C)C(N)=O [D6]: 52.1 µg/mL
- CC[C@@H](C)[C@@H](NC(=O)[C@H](N)CCCNC(=N)N)C(=O)N[C@@H](C(=O)N[C@H](CCC(N)=O)C(=O)N[C@H](CCCNC(=N)N)C(=O)N[C@@H](C(=O)N[C@H](CCCCN)C(=O)N[C@H](CCCCN)C(=O)N[C@H](Cc1c[nH]c2ccccc12)C(=O)N[C@H](CC(C)C)C(=O)N[C@H](CCCNC(=N)N)C(N)=O)[C@H](C)CC)C(C)C [GNP-D8]: ≥ 42.8 µM

Now for the compound whose IC50 we want.
Query :: Reported IC50, compound CC[C@@H](C)[C@@H](NC(=O)[C@H](N)CCCNC(=N)N)C(=O)N[C@@H](C(=O)N[C@H](CCC(N)=O)C(=O)N[C@H](CCCNC(=N)N)C(=O)N[C@@H](C(=O)N[C@H](CCCCN)C(=O)N[C@H](CCCCN)C(=O)N[C@H](Cc1c[nH]c2ccccc12)C(=O)N[C@H](CC(C)C)C(=O)N[C@H](CCCNC(=N)N)C(N)=O)[C@H](C)CC)C(C)C [D8] : ____
Result :: > 64 µg/mL
